Listed here: items and their measured IC50.
# Tested on: MYB mRNA
# Test: Splicing RT-qPCR assay, MYB canonical (CJ) and alternative (AJ) junction mRNA
# Assay type: cell-based
# Experimental Parameters: Homo sapiens, decrease in canonical junction mRNA, A673 or K562 cells, 24 hours

Please review the following examples before continuing.
• COc1ncc2c(N3C[C@@H](C)N[C@@H](C)C3)ccc(C(=O)Nc3cc(F)c4nc(C)cn4c3)c2n1 = < 100 nM
• CN[C@H]1CCN(c2ccc(C(=O)Nc3cc(F)c4nc(C)cn4c3)c3nccnc23)C1 (single isomer, unassigned) = < 100 nM
• Cc1cn2cc(NC(=O)c3ccc(N4CCNCC4)c4nncnc34)cc(F)c2n1 = 100 to 1000 nM
• Cc1cn2cc(NC(=O)c3ccc(N4CCN[C@@H](CO)C4)c4nccnc34)cc(F)c2n1 = 100 to 1000 nM
• Cc1cn2cc(NC(=O)c3ccc(N4C[C@@H](C)N[C@@H](C)C4)c4ncc(N(C)C)nc34)cc(F)c2n1 = < 100 nM

Please look at the following compound next.
## Input Request - read-out IC50 | tested on MYB mRNA | compound COCCOc1ccc2c(N3CCNCC3)ccc(C(=O)Nc3cc(F)c4nc(C)cn4c3)c2n1
## Output < 100 nM
